B1: C22orf31 (parent)
chain: YSLELGKAIKQKLWEALCSQGAIS

# Variants of: B1
# ASSAY_OVERVIEW: protein stability index of a GFP-peptide fusion (GPS, HEK-293T) (PSI 1-6); higher = more stable;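 further: lentivirally expressed fusions sorted by FACS into six bins by GFP to DsRed ratio, PSI derived from sequencing read proportions per bin multiplied by bin number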
# RECORDED_CONDITIONS: c terminus: a fixed tail appended
Measured protein stability index by item
READOUT_NAME: protein stability index

[[record]]
variant = "E4W"
recorded_value = 3.56

[[record]]
variant = "E4N"
recorded_value = 3.57

[[record]]
variant = "E15Q"
recorded_value = 1.41

[[record]]
variant = "L13W"
recorded_value = 1.94

[[record]]
variant = "Q11W"
recorded_value = 3.82

[[record]]
variant = "A8H"
recorded_value = 2.73

[[record]]
variant = "L5M"
recorded_value = 2.14

[[record]]
variant = "Y1P"
recorded_value = 2.12

[[record]]
variant = "Q11A"
recorded_value = 2.47

[[record]]
variant = "L3G"
recorded_value = 1.43

[[record]]
variant = "K12L"
recorded_value = 2.66

[[record]]
variant = "S19D"
recorded_value = 1.88

[[record]]
variant = "K10C"
recorded_value = 2.31

[[record]]
variant = "K12C"
recorded_value = 2.03

[[record]]
variant = "A16P"
recorded_value = 2.3

[[record]]
variant = "E15W"
recorded_value = 1.9

[[record]]
variant = "A16H"
recorded_value = 1.83

[[record]]
variant = "I9T"
recorded_value = 2.38

[[record]]
variant = "G6L"
recorded_value = 2.97

[[record]]
variant = "C18K"
recorded_value = 4.02

[[record]]
variant = "I9P"
recorded_value = 1.99

[[record]]
variant = "Q20G"
recorded_value = 3.45

[[record]]
variant = "K10Q"
recorded_value = 2.64

[[record]]
variant = "K12I"
recorded_value = 3.58

[[record]]
variant = "A16R"
recorded_value = 2.1

[[record]]
variant = "S2K"
recorded_value = 2.68

[[record]]
variant = "L5D"
recorded_value = 2.11

[[record]]
variant = "L17E"
recorded_value = 1.69

[[record]]
variant = "K7R"
recorded_value = 1.6

[[record]]
variant = "G6A"
recorded_value = 1.94

[[record]]
variant = "A8D"
recorded_value = 1.76

[[record]]
variant = "L17C"
recorded_value = 3.17

[[record]]
variant = "E4C"
recorded_value = 2.69

[[record]]
variant = "L3E"
recorded_value = 2.53

[[record]]
variant = "I23S"
recorded_value = 2.85

[[record]]
variant = "K12G"
recorded_value = 1.07

[[record]]
variant = "K12N"
recorded_value = 1.93

[[record]]
variant = "A8T"
recorded_value = 1.97

[[record]]
variant = "K10I"
recorded_value = 2.95

[[record]]
variant = "L13P"
recorded_value = 2.04

[[record]]
variant = "S2M"
recorded_value = 2.38

[[record]]
variant = "L5P"
recorded_value = 1.62

[[record]]
variant = "L17I"
recorded_value = 2.85

[[record]]
variant = "K12Q"
recorded_value = 2.26

[[record]]
variant = "K12F"
recorded_value = 2.11

[[record]]
variant = "L13H"
recorded_value = 2.48

[[record]]
variant = "L13A"
recorded_value = 1.41

[[record]]
variant = "I9Q"
recorded_value = 1.94

[[record]]
variant = "L13M"
recorded_value = 2.17

[[record]]
variant = "I9H"
recorded_value = 2.07

[[record]]
variant = "I9M"
recorded_value = 1.07

[[record]]
variant = "C18M"
recorded_value = 2.12

[[record]]
variant = "L3K"
recorded_value = 2.03

[[record]]
variant = "A8E"
recorded_value = 2.17

[[record]]
variant = "C18E"
recorded_value = 2.17

[[record]]
variant = "L13G"
recorded_value = 1.88

[[record]]
variant = "A16Q"
recorded_value = 1.89

[[record]]
variant = "Q11P"
recorded_value = 1.36

[[record]]
variant = "E15N"
recorded_value = 3

[[record]]
variant = "G21D"
recorded_value = 1.94

[[record]]
variant = "I9A"
recorded_value = 1.35

[[record]]
variant = "W14N"
recorded_value = 2.21

[[record]]
variant = "A8W"
recorded_value = 1.81

[[record]]
variant = "A22D"
recorded_value = 1.59

[[record]]
variant = "K12D"
recorded_value = 1.56

[[record]]
variant = "Y1T"
recorded_value = 3.1

[[record]]
variant = "A16Y"
recorded_value = 1.89

[[record]]
variant = "W14E"
recorded_value = 2.52

[[record]]
variant = "I9K"
recorded_value = 2.24

[[record]]
variant = "G6H"
recorded_value = 1.59

[[record]]
variant = "E4I"
recorded_value = 3.45

[[record]]
variant = "A16S"
recorded_value = 2.54

[[record]]
variant = "K12E"
recorded_value = 1.85

[[record]]
variant = "L5K"
recorded_value = 2.64

[[record]]
variant = "C18H"
recorded_value = 1.66

[[record]]
variant = "L17T"
recorded_value = 2.26

[[record]]
variant = "E15H"
recorded_value = 1.65

[[record]]
variant = "S2G"
recorded_value = 2.35

[[record]]
variant = "I9V"
recorded_value = 2.26

[[record]]
variant = "W14S"
recorded_value = 1.85

[[record]]
variant = "L13I"
recorded_value = 2.33

[[record]]
variant = "E4S"
recorded_value = 1.88

[[record]]
variant = "K7Y"
recorded_value = 2.1

[[record]]
variant = "G6Q"
recorded_value = 1.98

[[record]]
variant = "L5T"
recorded_value = 1.75

[[record]]
variant = "L17Q"
recorded_value = 1.87


Source of measurements: the supplement of paper PMC10567573
